# measurement target: peripheral benzodiazepine receptors
# measurement description: Affinity for the peripheral benzodiazepine receptors in vitro (inhibition of specific binding of PK 11195)
# assay conditions: tritiated PK 11195, read-out: IC50 (inhibiting 50% of the specific binding of PK 11195)
measure: IC50 (nM)
The reply should contain only the number, in nM.

// query Which IC50 is reported for this compound? CCOC(=O)c1cnc2ccc(Cl)nc2c1NCC(=O)N(CC(C)C)CC(C)C
// result 18

----------
For each entry below, report its pIC50 value.
# measurement target: central benzodiazepine receptors
# measurement description: Affinity for the central benzodiazepine receptors in vitro (3H-flunitrazepam binding)
# assay conditions: 4° C., 90 mn
# pIC50 is unitless: minus log10 of the molar concentration; print number only

// query Which pIC50 is reported for this molecule? CCCN(CCC)C(=O)CNc1c(C(=O)O)cnc2ccc(Cl)nc12 [Example 22]
// result 8.44

// query Which pIC50 is reported for this molecule? CCCCCN(CCCCC)C(=O)CNc1c(C(=O)OCC)cnc2ccc(Cl)nc12 [Example 4]
// result 5.82

// query Which pIC50 is reported for this molecule? CCCCN(C)C(=O)CNc1c(C(=O)OCC)cnc2ccc(Cl)nc12 [Example 10]
// result 6.88

// query Which pIC50 is reported for this molecule? CCCN(CCC)C(=O)CNc1c(C(=O)OCC)cnc2ccc(C)nc12 [Example 18]
// result 7.70

// query Which pIC50 is reported for this molecule? CNC1=Nc2ccc(Cl)cc2C(c2ccccc2)=[N+]([O-])C1 [chlordiazepoxide, reference compound]
// result 6.18

----------
For each entry below, report its pIC50 value.
# measurement target: central benzodiazepine receptors
# measurement description: Affinity for the central benzodiazepine receptors in vitro (3H-flunitrazepam binding)
# assay conditions: 4° C., 90 mn
# pIC50 is unitless: minus log10 of the molar concentration; print number only

// query Which pIC50 is reported for this compound? CCOC(=O)c1cnc2cccnc2c1NCC(=O)N(C)c1ccc(Cl)cc1
// result 6.13

// query Which pIC50 is reported for this compound? CCCN(CCC)C(=O)CCNc1c(C(=O)OCC)c[n+]([O-])c2ccc(Cl)nc12
// result 7.08

// query Which pIC50 is reported for this compound? CCCN(CCC)C(=O)CN(C)c1c(C(=O)OCC)cnc2ccc(C)nc12
// result 6.17

// query Which pIC50 is reported for this compound? CCOC(=O)c1cnc2ccncc2c1NCC(=O)N(C)c1ccc(Cl)cc1
// result 6.07

// query Which pIC50 is reported for this compound? CCCN(CCC)C(=O)CNc1c(C(=O)OCC)cnc2ccc(OC)nc12
// result 6.84
